# assay.text: NCI Yeast Anticancer Drug Screen. Data for the cln2 rad14 strain (AID 165);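 note: 0% = growth equal to vehicle treated cultures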
# measurement.context: S. cerevisiae cln2 rad14 strain, at 50.0 µM, active compounds read high
The panel holds about 79,000 compounds, 15% with a hit somewhere; the sample as a whole holds those more often.
Measured growth inhibition, listed per entry.
Could you give me the number in %? Just the number is fine.

CNC(Cc1ccccc1)c1cccc(OC)c1O (stereo unspecified); -28.4

Answer with the recorded growth inhibition for the molecule listed here: "Cc1cccc(C#N)c1" -1.4

Answer with the recorded growth inhibition for the molecule listed here: CC(=O)Nc1cc([As]=O)ccc1O (stereo unspecified) 10.6

Answer with the recorded growth inhibition for the molecule listed here: "N#CC(C#N)=Cc1ccccc1[N+](=O)[O-]" 25.6

Answer with the recorded growth inhibition for the molecule listed here: "O=c1oc2cc(O)ccc2c(O)c1C(c1ccc2ccccc2c1)c1c(O)c2ccc(O)cc2oc1=O" 35.8

Answer with the recorded growth inhibition for the molecule listed here: NP(=O)(Oc1cccc2c(OP(N)(=O)N(CCCl)CCCl)cccc12)N(CCCl)CCCl (stereo unspecified) -29.7

Answer with the recorded growth inhibition for the molecule listed here: "COC(=O)C1=CO[C@@H](C)[C@@H]2CN3CCc4c([nH]c5cc(OC)ccc45)[C@@H]3C[C@H]12" -2.9

Answer with the recorded growth inhibition for the molecule listed here: "CN(C)c1ccc(/C=C/C=C\C2=CC(=C\C=C/C=C3C=CC(=[N+](C)C)C=C3)/Sc3ccccc32)cc1" -29.6

Answer with the recorded growth inhibition for the molecule listed here: "CC1=CC(=Nc2ccc(N(CCCl)CCCl)cc2)C=C(C)C1=O" 13.8

Answer with the recorded growth inhibition for the molecule listed here: "CC(=O)Nc1cc([As](C)(=O)O)ccc1O" -41.5

Answer with the recorded growth inhibition for the molecule listed here: "c1ccc(CN2C3c4ccccc4C2c2ccccc23)cc1" -12.3
